# test_description: Efflux ratio for apparent permeability across basolateral to apical side to apical to basolateral side in human Caco2 cells
# Format: ADME, cell-based
# condition_parameters: Caco-2
observation_type: efflux ratio

Query: Entry O=C1CCN(C(=O)Nc2ccc(F)c(Cl)c2)[C@H]2CCCC[C@@H]12 (relative stereo) : reported efflux ratio = ?
Reply: 0.5

###

# test_description: Cytotoxicity against mouse […] measured by MTT assay
# Format: toxicity, cell-based, AML12HBV10
# condition_parameters: AML12HBV1 cells
observation_type: CC50

Query: Entry O=C1CCN(C(=O)Nc2ccc(F)c(Cl)c2)[C@H]2CCCC[C@@H]12 (relative stereo) : reported CC50 = ?
Reply: > 100 µM
